The reported measurements were obtained from patent US5654303A.

Target: AMPA receptors
Assay: AMPA receptor binding (Honore et al.), Table 1
Measurement name: IC50 (µM)

Before answering, review these 5 worked examples.
molecule="Cc1c([N+](=O)[O-])cc2[nH]c(=O)c(=O)[nH]c2c1CN(C)C [Compound 1]" data_value=1.5
molecule="CCCN(CCC)Cc1c(C)c([N+](=O)[O-])cc2[nH]c(=O)c(=O)[nH]c12 [Compound 3]" data_value=1.63
molecule="Cc1c([N+](=O)[O-])cc2[nH]c(=O)c(=O)[nH]c2c1CN(C)C(C)C [Compound 7]" data_value=1.15
molecule="CCN(CC)Cc1c(C)c([N+](=O)[O-])cc2[nH]c(=O)c(=O)[nH]c12 [Compound 2]" data_value=0.689
molecule="Cc1c([N+](=O)[O-])cc2[nH]c(=O)c(=O)[nH]c2c1CNC1CCCCC1 [Compound 5]" data_value=1.26

(1) Cc1c([N+](=O)[O-])cc2[nH]c(=O)c(=O)[nH]c2c1CN(C)C1CCCCC1 [Compound 6]
(2) CCCCN(CCCC)Cc1c(C)c([N+](=O)[O-])cc2[nH]c(=O)c(=O)[nH]c12 [Compound 4]
**Query** In terms of reported IC50, does 1 or 2 have the smaller number? State the label of the item chosen.
**Result** 1
(1: 3.23 µM, 2: 4.64 µM)

---

Target: kainate site (non-NMDA receptor)
Test: Kainate site (non-NMDA receptor) binding (London and Coyle), Table 1 'KA'
Measurement name: IC50 KA (µM)

Before answering, review these 3 worked examples.
mol_smiles=CCCCN(CCCC)Cc1c(C)c([N+](=O)[O-])cc2[nH]c(=O)c(=O)[nH]c12 measurement_name="IC50 KA" data_value=20.50
mol_smiles=CCCN(CCC)Cc1c(C)c([N+](=O)[O-])cc2[nH]c(=O)c(=O)[nH]c12 measurement_name="IC50 KA" data_value=24.93
mol_smiles=CCN(CC)Cc1c(C)c([N+](=O)[O-])cc2[nH]c(=O)c(=O)[nH]c12 measurement_name="IC50 KA" data_value=6.647

(A) Cc1c([N+](=O)[O-])cc2[nH]c(=O)c(=O)[nH]c2c1CN(C)C
(B) Cc1c([N+](=O)[O-])cc2[nH]c(=O)c(=O)[nH]c2c1CN(C)C(C)C
**Query** Hi there! Just curious which has the higher IC50 KA between A and B . State the label of the item chosen.
**Result** B
(B: 8.23 µM, A: 4.483 µM)
